melting point values, listed per item

// worked examples, melting point included
CCCn1c2ccccc2c2nnc(SCc3cn(-c4ccc(S(N)(=O)=O)cc4)nn3)nc21    261 to 263 °C
CC(C)n1c2ccccc2c2nnc(SCc3cn(-c4ccc(S(N)(=O)=O)cc4)nn3)nc21    213 to 215 °C
CC(C)n1c2ccc(Cl)cc2c2nnc(SCc3cn(-c4ccc(S(N)(=O)=O)cc4)nn3)nc21    263 to 265 °C
CCCn1c2ccc(Cl)cc2c2nnc(SCc3cn(-c4ccc(S(N)(=O)=O)cc4)nn3)nc21    257 to 262 °C
CCn1c2ccc(F)cc2c2nnc(SCc3cn(-c4ccc(S(N)(=O)=O)cc4)nn3)nc21    246 to 248 °C
C=CCn1c2ccccc2c2nnc(SCc3cn(-c4ccc(S(N)(=O)=O)cc4)nn3)nc21    230 to 232 °C
Cn1c2ccc(Cl)cc2c2nnc(SCc3cn(-c4ccc(S(N)(=O)=O)cc4)nn3)nc21    243 to 248 °C

Now examine the next entry.
Given the entry C=CCn1c2ccc(Cl)cc2c2nnc(SCc3cn(-c4ccc(S(N)(=O)=O)cc4)nn3)nc21 , report its measured melting point.
261 to 264 °C

###

molecular target: hCA I (Homo sapiens, UniProt P00915)
Sequence (P00915 whole entry): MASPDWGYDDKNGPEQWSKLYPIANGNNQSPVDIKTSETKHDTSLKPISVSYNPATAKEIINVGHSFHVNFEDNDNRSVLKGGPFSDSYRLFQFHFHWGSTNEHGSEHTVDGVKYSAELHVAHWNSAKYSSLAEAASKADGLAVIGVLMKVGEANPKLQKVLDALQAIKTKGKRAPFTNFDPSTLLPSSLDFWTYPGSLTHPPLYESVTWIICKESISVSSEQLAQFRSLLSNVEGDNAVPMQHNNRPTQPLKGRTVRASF
READOUT LABEL: pKi
The scale used: pKi is minus the common logarithm of the concentration in molar units.

Solved cases below.
CCCn1c2ccc(F)cc2c2nnc(SCc3cn(-c4ccc(S(N)(=O)=O)cc4)nn3)nc21    6.12
CCn1c2ccccc2c2nnc(SCc3cn(-c4ccc(S(N)(=O)=O)cc4)nn3)nc21    6.19
CCn1c2ccc(Cl)cc2c2nnc(SCc3cn(-c4ccc(S(N)(=O)=O)cc4)nn3)nc21    5.55
CC(C)n1c2ccc(F)cc2c2nnc(SCc3cn(-c4ccc(S(N)(=O)=O)cc4)nn3)nc21    6.42

Now let's try a different one.
Report pKi for C=CCn1c2ccc(F)cc2c2nnc(SCc3cn(-c4ccc(S(N)(=O)=O)cc4)nn3)nc21 tested on hCA I (Homo sapiens, UniProt P00915).
5.34

###

Listed below: melting point values for each entry.

Would you kindly share the measured melting point for C=CCn1c2ccc(F)cc2c2nnc(SCc3cn(-c4ccc(S(N)(=O)=O)cc4)nn3)nc21 [Compound 6j] ?
245 to 247 °C

Give the measured melting point of CCn1c2ccccc2c2nnc(SCc3cn(-c4ccc(S(N)(=O)=O)cc4)nn3)nc21 [Compound 6b] .
202 to 204 °C

So what does the record say about melting point for Cn1c2ccccc2c2nnc(SCc3cn(-c4ccc(S(N)(=O)=O)cc4)nn3)nc21 [Compound 6a] ?
235 to 240 °C

###

molecular target: hCA XIII (Homo sapiens)
Sequence (Q8N1Q1 whole entry): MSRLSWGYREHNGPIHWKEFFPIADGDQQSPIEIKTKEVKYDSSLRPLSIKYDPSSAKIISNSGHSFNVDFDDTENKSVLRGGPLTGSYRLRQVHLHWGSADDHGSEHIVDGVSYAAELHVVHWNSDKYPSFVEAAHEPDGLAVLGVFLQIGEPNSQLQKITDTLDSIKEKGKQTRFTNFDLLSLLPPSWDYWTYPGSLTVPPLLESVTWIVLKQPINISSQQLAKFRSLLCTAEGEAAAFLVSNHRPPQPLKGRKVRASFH
Threshold 400 nM: Ki strictly smaller gives TRUE, otherwise FALSE.

Completed entries (count: 5):
Cn1c2ccccc2c2nnc(SCc3cn(-c4ccc(S(N)(=O)=O)cc4)nn3)nc21    TRUE
CCCn1c2ccccc2c2nnc(SCc3cn(-c4ccc(S(N)(=O)=O)cc4)nn3)nc21    TRUE
CC(C)n1c2ccc(F)cc2c2nnc(SCc3cn(-c4ccc(S(N)(=O)=O)cc4)nn3)nc21    FALSE
C=CCn1c2ccc(F)cc2c2nnc(SCc3cn(-c4ccc(S(N)(=O)=O)cc4)nn3)nc21    FALSE
CCn1c2ccc(Cl)cc2c2nnc(SCc3cn(-c4ccc(S(N)(=O)=O)cc4)nn3)nc21    FALSE

Here is the next item to consider.
Given CCCn1c2ccc(Cl)cc2c2nnc(SCc3cn(-c4ccc(S(N)(=O)=O)cc4)nn3)nc21 , is recorded Ki strictly lower than 400 nM?
FALSE
